# key: entry, value: Top (MFI)
Target: T1, human interleukin 13 receptor subunit alpha 2 (IL-13RA2) (human, UniProt Q14627 27-380)
T1 construct: whole, on cells; also called IL-13Rα2; CD213A2
T1 sequence (looked up): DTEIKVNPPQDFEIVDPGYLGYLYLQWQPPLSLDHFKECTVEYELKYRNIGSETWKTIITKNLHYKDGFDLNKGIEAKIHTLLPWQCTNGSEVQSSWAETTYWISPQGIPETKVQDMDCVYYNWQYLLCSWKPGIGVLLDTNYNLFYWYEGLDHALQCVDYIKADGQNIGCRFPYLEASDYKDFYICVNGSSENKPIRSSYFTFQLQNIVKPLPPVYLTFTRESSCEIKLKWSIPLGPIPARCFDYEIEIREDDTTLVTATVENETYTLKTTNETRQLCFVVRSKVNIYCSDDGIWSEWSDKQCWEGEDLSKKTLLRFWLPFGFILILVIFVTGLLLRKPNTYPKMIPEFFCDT
Assay: FACS on A375 cells
Please give a number only; it is taken to be in MFI.

// below: answered binders
• 34A5G9 (antibody, V domains shown, purified mouse antibody) VH: EVHLQQSGPELVKPGASVKISCKTSGYTFTEYTMHWVKQSHGKSLEWIGRINPNNGIAEYKQTFKDKATLAVDKSSSTAYMEFRSLTSEDSAVYYCARGEGYGYWFAYWGQGTLVTVSA VL: DIQMTQSPASLSASVGETVTITCRTSDNIYSYLAWYQQRQGKSPQLLVSNARTLAEGVPSRFSGSGSGTQFSLKINSLQPEDFGIYYCQHHSGTPFTFGSGTNLEIE = 248000
• 51G2B3 (antibody, V domains shown, purified mouse antibody) VH: QVQLQQSGPELVKPGASVKISCKASGYAFSDSWMNWVKQRPGQGLEWIGRIYPGDGDTNYNGKFKGKATLTADKSSNTAYMQLSSLTSVDSAVYFCARSWNGSPWFPYWGQGTLVTVSA VL: DVLMTQTPLSLPVSLGDQASISCRSSQTIAHRNGNTYLEWYLQKPGQSPKLLLYKVSNRFSGVPDRFSGSGSGTDFTLKISRVEAEDLGVYYCFQGSHVTWTFGGGTKLEIK = 243000

Now look at this one.
Input line: # return recorded Top (MFI) for input 61H8C1 (antibody, V domains shown, purified mouse antibody) VH: QVQLQQSGAELARPGASVMLSCKASGYTFTSYWTQWIKQRPGQGLEGIGAIYPGDDDTSYNQKFKGKATLTADKSSSTAYMQLNSLTSEDSAVYYCARGATLLRPFPYWGQGTLVTVSA VL: DIVMTQSHKFMSTSVGDRVSITCKASQDVSTAVAWYQQKPGQSPKLLIYSASYRYTGVPDRFTGSGSGTDFTFTISSVQAEDLAVYSCQQHYSIPPTFGGGTKLEIK
Output line: 203000
